Can you tell me MC3R cAMP (EC50) for the items I'm about to list?
- Measurement target: human MC3R (human, UniProt P41968 1-323)
- Sequence (P41968 whole entry): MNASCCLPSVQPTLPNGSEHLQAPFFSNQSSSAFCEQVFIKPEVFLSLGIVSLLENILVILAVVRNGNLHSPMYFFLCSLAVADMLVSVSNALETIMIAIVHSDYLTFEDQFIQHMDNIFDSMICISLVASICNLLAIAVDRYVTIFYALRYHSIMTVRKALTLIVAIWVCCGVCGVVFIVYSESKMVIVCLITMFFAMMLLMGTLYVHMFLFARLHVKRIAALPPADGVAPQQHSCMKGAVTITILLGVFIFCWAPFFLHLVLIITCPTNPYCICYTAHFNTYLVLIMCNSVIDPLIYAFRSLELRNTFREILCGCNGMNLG
- Assay: cell-based or functional assay
Non-standard residues stand in square brackets, D forms with d. d(αMeW) = C[C@@](N)(Cc1c[nH]c2ccccc12)C(=O)O; Phe(4-I) = N[C@@H](Cc1ccc(I)cc1)C(=O)O; Nle = CCCC[C@H](N)C(=O)O; dNMeA = CN[C@H](C)C(=O)O

Could you report MC3R cAMP (EC50) for every entry in the following list?
1. Ac-[Nle][dA]H[Phe(4-I)]R[dW]DRF-NH2 (SMILES CCCC[C@H](NC(C)=O)C(=O)N[C@H](C)C(=O)N[C@@H](Cc1c[nH]cn1)C(=O)N[C@@H](Cc1ccc(I)cc1)C(=O)N[C@@H](CCCNC(=N)N)C(=O)N[C@H](Cc1c[nH]c2ccccc12)C(=O)N[C@@H](CC(=O)O)C(=O)N[C@@H](CCCNC(=N)N)C(=O)N[C@@H](Cc1ccccc1)C(N)=O) [CTX-1169]
2. Ac-[Nle][dA]HFR[d(αMeW)]DRFG-OH (SMILES CCCC[C@H](NC(C)=O)C(=O)N[C@H](C)C(=O)N[C@@H](Cc1c[nH]cn1)C(=O)N[C@@H](Cc1ccccc1)C(=O)N[C@@H](CCCNC(=N)N)C(=O)N[C@](C)(Cc1c[nH]c2ccccc12)C(=O)N[C@@H](CC(=O)O)C(=O)N[C@@H](CCCNC(=N)N)C(=O)N[C@@H](Cc1ccccc1)C(=O)NCC(=O)O) [CTX-1510]

4.8 nM
181 nM

Which value of MC3R cAMP (EC50) has been reported for Ac-[Nle][dNMeA]HFR[dW]DRFG-OH (SMILES CCCC[C@H](NC(C)=O)C(=O)N(C)[C@H](C)C(=O)N[C@@H](Cc1c[nH]cn1)C(=O)N[C@@H](Cc1ccccc1)C(=O)N[C@@H](CCCNC(=N)N)C(=O)N[C@H](Cc1c[nH]c2ccccc12)C(=O)N[C@@H](CC(=O)O)C(=O)N[C@@H](CCCNC(=N)N)C(=O)N[C@@H](Cc1ccccc1)C(=O)NCC(=O)O) [CTX-1183] in the records?
71.6 nM
